concentration at 4 h values, listed per item
Experiment: Drug metabolism experiment on prodrug in SD rats: concentration in liver compared with blood
Type: in vivo
Measurement Parameters: male, Sprague-Dawley (SD), rat, plasma (heading prints blood), po, 3 mg/kg, 4 h, SD rats, oral 3 mg/kg Compound 10; read-out: Ct Blood
Measured Endpoint: concentration at 4 h (ng/g)

molecule="Cc1cc(OC[P@@]2(=O)OCC[C@@H](c3cccc(Cl)c3)O2)cc(C)c1Cc1ccc(O)c2c1CCC2(C)C [Compound 10]" experimental_value=7.9
molecule="Cc1cc(OCP(=O)(O)O)cc(C)c1Cc1ccc(O)c2c1CCC2(C)C [Compound 1]" experimental_value=28.4
